Assay: MRT (0 to t) in Sprague-Dawley rat at 20 mg/kg, iv by LC-MS/MS analysis
Assay type: ADME, organism-based
Details: in vivo
Value type: MRT last (h)
Number in h, nothing else.

Prompt: Report MRT last, nothing else, for this compound: `C=C[C@]1(C)C[C@@H](OC(=O)c2ccc(C(F)(F)F)cn2)[C@]2(C)[C@H](C)CC[C@]3(CC(=C)C(=O)[C@H]32)[C@@H](C)[C@@H]1OC(=O)c1ccc(C(F)(F)F)cn1`
Completion: 2.91

###

Assay: MRT (0 to t) in Sprague-Dawley rat at 50 mg/kg, po by LC-MS/MS analysis
Format: ADME, organism-based
Conditions: in vivo
Value type: MRT last (h)
Number in h, nothing else.

Prompt: Report MRT last, nothing else, for this compound: `C=C[C@]1(C)C[C@@H](OC(=O)c2ccc(C(F)(F)F)cn2)[C@]2(C)[C@H](C)CC[C@]3(CC(=C)C(=O)[C@H]32)[C@@H](C)[C@@H]1OC(=O)c1ccc(C(F)(F)F)cn1`
Completion: 4.71

###

Assay: Half life in Sprague-Dawley rat at 50 mg/kg, po by LC-MS/MS analysis
Assay type: ADME, organism-based
Conditions: in vivo
Value type: half-life
Reply with a number, then the unit it belongs to.

Prompt: Report half-life, nothing else, for this compound: `C=C[C@]1(C)C[C@@H](OC(=O)c2ccc(C(F)(F)F)cn2)[C@]2(C)[C@H](C)CC[C@]3(CC(=C)C(=O)[C@H]32)[C@@H](C)[C@@H]1OC(=O)c1ccc(C(F)(F)F)cn1`
Completion: 392 min

###

Experiment: Tmax in Sprague-Dawley rat at 50 mg/kg, po by LC-MS/MS analysis
Format: ADME, organism-based
Settings: in vivo
Value type: Tmax
Reply with a number, then the unit it belongs to.

Prompt: Report Tmax, nothing else, for this compound: `C=C[C@]1(C)C[C@@H](OC(=O)c2ccc(C(F)(F)F)cn2)[C@]2(C)[C@H](C)CC[C@]3(CC(=C)C(=O)[C@H]32)[C@@H](C)[C@@H]1OC(=O)c1ccc(C(F)(F)F)cn1`
Completion: 2.67 h

###

Test: Cmax in Sprague-Dawley rat at 50 mg/kg, po by LC-MS/MS analysis
Format: ADME, organism-based
Set-up: dose 50 mg/kg, route po
Details: in vivo
Value type: Cmax
Reply with a number, then the unit it belongs to.

Prompt: Report Cmax, nothing else, for this molecule: `C=C[C@]1(C)C[C@@H](OC(=O)c2ccc(C(F)(F)F)cn2)[C@]2(C)[C@H](C)CC[C@]3(CC(=C)C(=O)[C@H]32)[C@@H](C)[C@@H]1OC(=O)c1ccc(C(F)(F)F)cn1`
Completion: 3650 ng/mL

###

Tested on: CT26
Experiment: cells
Settings: Mus musculus, CT26, 72 h
pIC50: −log10 of the molar value.
We begin with a simple list: items and their reported pIC50.

INSERT INTO results (given_smiles, system_under_test, experimental_result) VALUES
  ('C=C[C@]1(C)C[C@@H](OC(=O)CO)[C@]2(C)[C@H](C)CC[C@]3(CCC(=O)[C@H]32)[C@@H](C)[C@@H]1O', 'CT26', '< 4.00');

Next up:
Prompt: Report pIC50, nothing else, for this compound: `C=C[C@]1(C)C[C@@H](O)[C@]2(C)[C@H](C)CC[C@]3(CC(=C)C(=O)[C@H]32)[C@@H](C)[C@@H]1OC(=O)Cc1ccc(F)cc1`
Completion: < 5.00

###

System: B16-F10
Experiment: Cytotoxicity against mouse B16-F10 cells assessed as inhibition of cell growth measured after 72 hrs by MTT assay
Type: functional, cell-based
Settings: B16-F10, 72 h
Value type: pIC50
// returns pIC50 (minus log10 of molar concentration), number only

Prompt: Report pIC50, nothing else, for this compound: `C=C[C@]1(C)C[C@@H](O)[C@]2(C)[C@H](C)CC[C@]3(CC(=C)C(=O)[C@H]32)[C@@H](C)[C@@H]1OC(=O)Cc1ccc(F)cc1`
Completion: 5.64
